Tested on: MS2 coat protein
procedureDetails: apparent Kd, MS2 coat protein; higher = weaker binding; RNA-MaP array; FMN 200 µM where present
conditionLabel: ligand present: flavin mononucleotide; designed as: ON switch for flavin mononucleotide
Answer label 0 if apparent Kd is under 20 nM, and label 1 if it is 20 nM or more.

Does the reported apparent Kd for UUGAGGUGCAAGAAGGAUCACAUGAGGAUCACCCAUGUCAUGUGAAGUCUCGAGAUUUUAUAUGGAUAGGAUAUUGCACCGAAC fall at or above the 20 nM mark?
label 1

// same read-out, input: UUGCCUCAGAACAUGAGGAUCACCCAUGUGCUGUGGGCAACAUAGGAUAUGAUGGUAUUAUACCGUCAGAAGGAUGAUGGUACU
label 0

Please give the result for UUAUGAUAGAUAGGAUAUACAUUGGAUUUAAAAGUAGAAGGAUCAAGUGGGAAAUGAACAUGAGGAUCACCCAUGUAAUAGGUU too.
label 1

Could you do the same for GGAGCCGGCACUGAGGAUAUUCAUAUUAAAACAUGAGGAUCACCCAUGUAGGCCAGAAGGCCUUGGGAGAAGGCAGGUCGACUCG , please?
label 1

Now try GUAUGAGCGAUAGGAUAUACUGAGAUUGAAUGGGUAGAAGGAUCUCUUGUGGGAAAGACAUGAGGAUCACCCAUGUCACGGACC .
label 1

Also, UUGGUCAGUCAGAAGGCUACAUUACAUGAGGAUCACCCAUGUCAAAAGUAGAGGAUAUGAAGUUCGCCAUGGUAAGAGCCUGUC please.
label 0

Continue with UGGUCAACAUCAGGAUAUUAACAUGGGCUACACUAAGAAGGGAUAAUGAAAUACGAACUAAACGCACAUGAGGAUCACCCAUGU
label 1

----------
Test system: MS2 coat protein
procedureDetails: apparent Kd, MS2 coat protein; higher = weaker binding; RNA-MaP array
conditionLabel: ligand present: flavin mononucleotide; designed as: OFF switch for flavin mononucleotide
Our labelling divides records by apparent Kd into ranges: band 1: < 10 nM; band 2: ≥ 10 nM and < 40 nM; band 3: ≥ 40 nM

Could you place ACAAAAUAGCUAGGAUAUCGUACGAAUUGACAUUUUUAGCAAACAUGAGGAUCACCCAUGUCCUACGAGAAGGAGCUUAUGAAG in its proper category? Many thanks.
band 1

Can you handle UUCACGUUAGGAUAUCGCGUCAGCACAGCCUGUAUGGCAAGCGAGAAGGAACAUGAGGAUCACCCAUGUCGGAC next?
band 2

Please answer likewise for GGCAAGUGAUAGAAGGGAUACAUGAGGAUCACCCAUGUAAGGGCGAAGCCUACCCUCCUUAAAGAUCAGGAUAUAUUGCAGACG
band 2

How about this sequence: GCACUAGAGCAAGGAUAUAUAUCGGAAUCUACAUGAGGAUCACCCAUGUGUGUGACUUCUCGCAGAUAGAAGGUGCUCGCUGAC
band 3

Similarly, CACAUUCCUUAGAAGGCUACGAAUUUAGCGCGUAGAGGAUAUAAGGGAUACAUGAGGAUCACCCAUGUGAUAUAUCUUCUGAAA ?
band 2

One more sequence: UGGGAACAUGAGGAUCACCCAUGUGAGGAUAUCCACCGAUUUCACACGAUAGGCACAAGGAGAAGGCACACCUA
band 2

Next up: GUUUUUUAAGGAUAUUCUAUUUCUAACAUGAGGAUCACCCAUGUACCCUCGUGCUAGCGAGAAGAAGGUAACAAAC
band 3

And for AUACGUGCAGGAUAUUAUUCGAGCCACAUGAGGAUCACCCAUGUUAAUUCUUCAUGUAUCUAAGAAGGGCAGUGAA ?
band 1

# iterate: UAUACACAUCCACAUGAGGAUCACCCAUGUGUGCCUCGUUCCGAGGAUAUGGGCCACGAUGUUUCCCAGAAGGCGGUCGCUAUA
band 2

Request: GGGAUUCGUGUUAGGAUAUUGAGGUGUAUUCCCGACAAGAAGGAACAUGAGGAUCACCCAUGUUGGGAACUGUG
band 3

Subsequent entry: CCGUUUGAUCAGAAGGAACCAGUCGAACCAUGUGACAGACAUGAGGAUCACCCAUGUUCGCGCGGUUAGGAUAUGACAGCUCAG
band 3

Also, ACUCGACAUGAGGAUCACCCAUGUCAGGAUAUCUGAGUGUGGCCUCCUACUAAACUAUAGAGAAGGGACAAUGG please.
band 2

Item: CCAUAAGACGAGAAGGGCUGCCAACUAGGUAGAGCAGGAUAUCGUCUUACUCGUCAUGGCAAAACAUGAGGAUCACCCAUGUAU
band 1

----------
System: MS2 coat protein
procedureDetails: apparent Kd, MS2 coat protein; higher = weaker binding; RNA-MaP array
conditionLabel: ligand present: theophylline; designed as: ON switch for theophylline
outcomeMeasure: apparent Kd (nM)
Quick reminder: number only, in nM, skip the unit.

Report apparent Kd for GGCCCACAUGAGGAUCACCCAUGUGUGGAUACCAGCCUCAUUUAGGGCCCUUGGCAGCCAGAUAGUAACAAGUCCGAAACACAGA tested on MS2 coat protein.
94.1

Param item: GCAUUAUUAUUAGAUACCAGUGUCGCAGGCGACAUGAGGAUCACCCAUGUAAAGUUACUCCACCCUUGGCAGCUAGUUCGACUAC
26.3

Same thing, different sequence: AGGAAGACGAUGGAUACCAGACAACCAGGGAACAUGAGGAUCACCCAUGUGAUUGAAAGGGUCCCUUGGCAGCCAGAAGCCGUUG
119

Try the sequence AAGAGACAUGAGGAUCACCCAUGUGUUGAUACCAGAAACACAAAGUUCCCUUGGCAGCAAAUCUGAGCGAAACGAUCUAGAGCGC
74.5

----------
Test system: MS2 coat protein
procedureDetails: apparent Kd, MS2 coat protein; higher = weaker binding; RNA-MaP array
conditionLabel: ligand present: flavin mononucleotide; designed as: ON switch for flavin mononucleotide
Recorded apparent Kd split into classes bottom end (below 10 nM), midrange (10 nM to below 60 nM), top end (60 nM or more)

Hi, small favor: classify ACACAUGAGGAUCACCCAUGUCGACGUUAGGCUCGUCGCGGCAGAAGGUGUGGCAUGGACACCCACAAGGAUAUGCAUGGGACU by its apparent Kd when you get a moment.
top end

And UUUAGGUCAGAGAAGGGCCAUUCUACAUACUCGGCAGGAUAUCUAUUACCUGACAUGAGGAUCACCCAUGUGGUGAACCGACCA ?
top end

Do the same for GGUUUGAACAAGAAGGUGAGUCACGAGACCCUGGGAUCUCGGGACAUGAGGAUCACCCAUGUCGUCAAGGAUAUUGUGGUGUUU please
top end

Now the sequence AUUAACUCAGCAGGAUAUCUCAGCGGACGUUGCAGAGAAGGGCUAUGCCUAUGUAGGCAACUCACAUGAGGAUCACCCAUGUAA
midrange

And the next one, CCUGAGGUUAUAGGAUAUAGGCUAGAGAGGUACGAUUCUUUAUGAACAUGAGGAUCACCCAUGUCCUAGAAGGAUACUUAGUAG ?
top end

Here is the next sequence: CCUCAAAGACAGAAGGAAGGUCCGCUACUAGCAGUAACAACAUGAGGAUCACCCAUGUCAAUACCUUAGGAUAUGUAAGAACGC
midrange

Then what about the sequence AAGGGCGCAGUAGGAUAUCAAUGUUUGACGGCGUGAGAAGGACUGCCCUAUUUUCAGACAUGAGGAUCACCCAUGUGCGUAAGA ?
bottom end

How about AACAUGAGGAUCACCCAUGUUCUGCAAUAAAGUGUAUCAUAUAAGGAUAUCAGACUAAUACGAACUGAGAAGGUAUUCCUACAC ?
bottom end

Subsequent entry: GAAGAAAAGUGAGGAUAUGGCAACCAGAUGACGCAAACAAUAAAACAUGAGGAUCACCCAUGUACCCAGAAGGCACCAAACAAA
bottom end

How about AGUUGUGGAAAGAAGGCGUGACGAGGUAAAUAUCCAACAUGAGGAUCACCCAUGUUUCUUGCCUACGAGGAUAUUUGUGCUAUC ?
midrange

Now consider UACUUGAAGUUGCAGGAUAUUUAGGAUCUAACAUGAGGAUCACCCAUGUUAUAUGAGAGACGUAUAAAGAAGGGCAGCGUGAUAGA .
bottom end

And what about the sequence AGUCGUUAACGGCGCAACACAUGAGGAUCACCCAUGUGCUAUGAGGAUAUCCGGGUGUACAAGCCGGAGAAGGCAUCGUUCUUU ?
bottom end

Then this sequence: UAUUUGGCGCUAGGAUAUAAAGGAACUAUUUAAUUAGAAGGAGCACGGGAACCUGAGGUACAUGAGGAUCACCCAUGUCUGAUA
midrange

----------
Exercise: for every item that follows, state its recorded apparent Kd.
System: MS2 coat protein
procedureDetails: apparent Kd, MS2 coat protein; higher = weaker binding; RNA-MaP array
conditionLabel: designed as: ON switch for flavin mononucleotide; no ligand

Which apparent Kd value is on record for UCGGUUCGUGUAGGAUAUACUCGCAAACAGGCAAAAUGCCUACAUGAGGAUCACCCAUGUUAGUGGUAGAAGGACACCUCAACA ?
479 nM

Now try UUACAAAACCAGAAGGUCUAAAAGAUUAAAUGAGAAGGAUAUGGCUAAACAUGAGGAUCACCCAUGUAGAAAACGAUACGUGAU .
37.8 nM

Can you check AACAUGAGGAUCACCCAUGUUCUGCAAUAAAGUGUAUCAUAUAAGGAUAUCAGACUAAUACGAACUGAGAAGGUAUUCCUACAC next?
5.3 nM

Again, but for AUUAGCAAGUCAUAGGAUAUGAAGCCACUUACAUGAGGAUCACCCAUGUAAUUCCGGGUCCCGCCUCAGAAGGAUGACGUAAUAGG
17.1 nM

UAAACAUGAGGAUCACCCAUGUAUUGGAGUAACCGCAAGAGGAGAAGGACCGGAGUGAGAUUAUGGUAGGAUAUCCCAACUACA ?
17.6 nM

Would you mind doing GAAACAUUAGAAGGAUAUGAUACGAACACCGGGUACAUGAGGAUCACCCAUGUUCAGAAAUAAUAUCAGAAGGUCAGCAACAAA as well?
985 nM

Try this sequence too: UACUUGAAGUUGCAGGAUAUUUAGGAUCUAACAUGAGGAUCACCCAUGUUAUAUGAGAGACGUAUAAAGAAGGGCAGCGUGAUAGA
9.4 nM

Next sequence: CCUCAAAGACAGAAGGAAGGUCCGCUACUAGCAGUAACAACAUGAGGAUCACCCAUGUCAAUACCUUAGGAUAUGUAAGAACGC
71.2 nM

Field entry: AAAGAUAACAAAGGAUAUGGAAGAAAUUAUAGGCCAGAAGGAUGGAAAUUGACAAUCGUGACAUGAGGAUCACCCAUGUAAGAA
15.9 nM

Same lookup for GCGGGAGCACAGAAGGCGGAACUAAAGCAAUUACCAAUAGUUAACAUGAGGAUCACCCAUGUGCCCGAGGAUAUGUCGAAAGUG , please.
53.2 nM

How about GGUUUGAACAAGAAGGUGAGUCACGAGACCCUGGGAUCUCGGGACAUGAGGAUCACCCAUGUCGUCAAGGAUAUUGUGGUGUUU ?
769 nM

Next: CUCACUAAGCUUUAGGAUAUAGACACUGGCACAUGAGGAUCACCCAUGUUCAACAAGGCGGAUAACUAGAAGGAAAGUAACCUUUU
11.9 nM

And then GCGACUUUUACCGAGGAUAUGUCGUGACACACAUGAGGAUCACCCAUGUUUCUAAGUCCUGGAAUACAGAAGGCGGUAUUAAUACA , what is it?
7.53 nM

Same again, this time with GCAACCCUGCAGAAGGGCGGGUGUACAUGAGGAUCACCCAUGUUAUCAGCAAAGUAGCUGGAUACGCAGGAUAUGCAGUCGAGU
164 nM
